Assay: soluble on expression in E. coli; label from the status in PepcDB or PDB records
Reported property: soluble on expression in E. coli

MGSDKIHHHHHHMLSCHLTSPNLVPCETVDNRSSFQILFDHESIIKTYVPVMKLRFRQLQAFHAIVETGTVTGAAGLLGISQPGVSNLLSQLEDQAGMALFERLHGRLLPTPEAELLFAEVDTVMRGMSKVTQTMVDLKTRKLGQLQIASQHAMSFGFMPRLIARFASDRPELNISFQSQYSSKVQEWVWNGLFEIGVCEMPLLYDTLTVYPLYVETMLALHKDNPLARHEVLTPELLAGEPFIVMGQDHMTHRRLREAFQDAGVPLRTRVHSHLFKNLLSFVQEGMGVALLDRFMFDYDMQGDVITRPFRPTIRMDMCVITSKSRPMSQLGKEFLDLLLGELQHYSVEGRPLVPAERKRR not soluble
MKKVGKSTFKFENCPIISDCFTIVGKKEGEGPLGLFFDMVVEDEYAGQKSWELAEGKLLNIAISKLIQKSGFTPDEVDLILSGDLLNQLTSSHFAARDLNIPFIGLYGACSTFALSVGLACVFVDGGFAKNIIAATSSHFCSAEKQFRYPLELGCQRPPTAQWTVTGAASFLIKPEDGTQKPKITHFTVGKILDYGIKDSNNMGACMAPAAFDTITTHLEDTKRDFTYYDIIVTGDLGYVGRKLLEELFKKEGKTLSFELLDCGILMFDQKTQDTGAGASGCAASACIFGGYFYKLMLQKTFKRILIVPTGALLSSSTVQLGESIPVIAHALSIEIELEHHHHHH not soluble

====

Experiment: soluble on expression in E. coli; label from the status in PepcDB or PDB records
Reported property: soluble on expression in E. coli

Examples with answers:
MGSDKIHHHHHHMNLKQLRYFVTICEEGQITAAAKRLHIKQPLLSYEIKQLELELETSLFIRGPRGISLTDAGKVLKPYAEQITELSDVAKTKVKYLDKGISGSLSIGSISSSINKLPNQRLLKLKKYYPNIAINVIEGNTYKLLGYLEKGLIDLAILRTPFSSKGVIGYYFDKEPMVAVSAKNNQKDTVGLPDKYLKIDDLSNKPLIIYRRFKELIENTFRNLGFNPLIVVRCDDARTALDGAKVGFGTAIVPKSAILQVENEGEKDIEFREIKEKALETQLAIMWRRDDSFNPLTENFLKMFIGK not soluble
MSQMAQSLRSQFATDKQVLQKFLNLDQKGMYQALYIWIDGSGENIRAKTRTFDFEPTDPEKLPIWNFDGSSTGQAEGADSDVYLKPVAIYPDPFRQGKNKLVMCETYDNKKKPTATNYRQRCKEVMEKAADQHPWFGMEQEYTLLDIDGHPFGWPKNGFPGPQGPYYCGVGANKVYGRDIVEAHYRACLYAGIQISGTNAEVMPGQWEFQVGPCEGIQMGDQLWVARYLLQRVAEEFGVIASFDCKPIKGDWNGAGCHTNFSTDKMRNPGGIDEIMSAINKLSLVHPQHIAYYDPHGGKDNERRLTGLHETASIDKFSYGVASRASSIRIPRSTDDDGYGYFEDRRPSSNCDPYTVTGALVRTVCLEGAERKLSMMYVPSQAPNITKH not soluble
MIYDFTTKISRKNLGSLKWDLMYSQNPEVGNEVVPLSVADMEFKNPPELIEGLKKYLDETVLGYTGPTEEYKKTVKKWMKDRHQWDIQTDWIINTAGVVPAVFNAVREFTKPGDGVIIITPVYYPFFMAIKNQERKIIECELLEKDGYYTIDFQKLEKLSKDKNNKALLFCSPHNPVGRVWKKDELQKIKDIVLKSDLMLWSDEIHFDLIMPGYEHTVFQSIDEQLADKTITFTAPSKTFNIAGMGMSNIIIKNPDIRERFTKSRDATSGMPFTTLGYKACEICYKECGKWLDGCIKVIDKNQRIVKDFFEVNHPEIKAPLIEGTYLQWIDFRALKMDHKAMEEFMIHKAQIFFDEGYIFGDGGIGFERINLAAPSSVIQESLERLNKALKDLKNRHLK soluble
MATTKPYRVLLYYMYTTIENPEEFAAEHLEFCNSLELKGRILVAKEGINGTCSGTVEQTEKYMEAMNNDPRFDGIVFKIDEADGHAFKKMHVRPRPELVTLRLEDDINPHEITGKYLEPKDFYEAMKQEDTVIIDARNDYEFDLGHFKGAIKPDIESFRELPDWIRENKEVLEGKKILTYCTGGIRCEKFSGWLVREGYEDVSQLHGGIVTYGKDPEVQGELWDGQCYVFDERIAVPVNQKEHVIVGKDHFTGEPCERYVNCSNPECNKKILCSEENEAKYLRACSHECRVSPRNRYVIQHELTEEQVAAALEQIEAGKLEHHHHHH soluble
MKEVLRVRTTKHTSIVNITQQVDQVVKKSGVREGICVVYTPHTTACVFVNEGADPDVVRDIVYSLEKLIPWNDPSYAHMEGNSAAHIRSAIIGNSRVIPIIDGELALGTWESIFLADFDGPRERKVIVVVLGEKLEHHHHHH not soluble
SLNPLDSFKSQVEANVTGLGADKDIQALSRIWSRETNRNGYTYNYSWLGRPIIQYPQDIMAMQELIWSIQPDLIIETGIAHGGSLIFSASMLELNAISGGPQDAEVLGIDIDIRQHNREAIEAHPMVKRISMIQGSSIAPEIIEQVKAKAEGKQKILVCLDSNHTHDHVLAELEAYAPLTSVGSYCVVFDTVVEDLPDEMFGDRPWGVGNNPKTAVWEYLKTHPEFEIDKSIQHKLLITVAPDGYLKRLG soluble

(Q) State its soluble on expression in E. coli: MERAEILGVGTELLYGETLDTNTAEIARSLKPYALKVERTLRVADEVAPLAREVEEAFARARLVVLSGGLGPTPDDVTREAVALALGEPLELDEAVLGEIEAFFRARGRAMPEANRKQAMRIPSATWLKNPRGTAPGWWVRKGGKDLVLLPGPPPEWRPMWQEVLPRLGLPRRPYAERVLKTWGIGESEIVERLGPLFVRGEEVEVGTYPKVHGVEVVVRGREDRVAELAERIKKKLLKEVWGEGEMTLAEAVKRRMEREGATLSTMESLTGGLLGAEITRVPGASRFYLGGVVSYSVGAKARFGVPQDLLSRTVSAETARAMAEAARSLFGSTYALATTGVAGPDPLEGEPPGTVYVALAGPTGAEVRRYRFPGDRETVRLRSVYAALALLVT
(A) soluble

(Q) State its soluble on expression in E. coli: MQELQLKVTQAQVEIIDREKFEQNINEVVAKYQNYAVTAGTIKDDKQVLADLRKLKKQLSDERIKVKKELSKPADDIDGYIKQASKPLDDTIDKIATDVKEFEDHQKALRLDTVKSYLSNKASEYMLDPRIFDEKAMEYTKAGNFMADGVTLKKVTMKSLEDLVTFEYQKEQEVEKAKATISGQCAEYGMTDQPYIRMLKEMTLVEVLGQIKADYLAEKQK
(A) not soluble

(Q) State its soluble on expression in E. coli: GMDISGRDVETRLTLAREFMSGVDELPTVPDIVLRIAGKLNDPDVAIDEVADLLLQDQVLTARVVHLANSPLYSAARPISSIRDAVIYLGLDLLREAIFTCAIVDLFKTGKGPLNRSTLWAHSLGVARIAKLIAERTGFLNPVNVYVAGLLHDVGEVFINFFRGKEFSQVVTLVDEEKITFGQAEERLFGTSHCEVGFALAKRWSLNEFICDTILYHHDIEAVPYKQAAIVAMVAFADEYCTLRRLGFEGHKPVDSVRTLLENHPSWGVIRRSLGGSDFDEKLIVAELDSSIVEIRAAVDELFLL
(A) soluble

(Q) State its soluble on expression in E. coli: MGSDKIHHHHHHMTTSSVRYPQRVRNELRFRELIVLRVERISAGFQRIVLGGEALDGFISLGFDDHTKVFFPEPGCRFTPPTVTEEGIIWGEGVRPVSRDYTPLYDEARRELALDFFIHDGGVASRWAMEAREGDTLTIGGPRGSLVVPEEYACQVYVCDESGMPALRRRLESLSRLPVRPAVTALVSIQDAAYRDYLAHLTDITVEYVVGGDEQAMQTRLSQLTIPESDYFIWITGEGKTVKRLSQCFEKGFDPHLVRAAAYWHRK
(A) not soluble

====

Experiment: soluble on expression in E. coli; label from the status in PepcDB or PDB records
Reported property: soluble on expression in E. coli

MGSDKIHHHHHHMEKNYYLTKTEQRIFNVIKHAKIITVREVAELFPELSRNMICKALSSLEKKGYLYRIKNGLYLIQQAPTKGSIIIEDPYRIALAMFSGYIAFSSALRLYNLIEYEPFTVFVATPRKSKKVEIDNYIIQAVALGEKATGITLYNGVYTSTLAKTFFDCFYKPQYCGGYETITKALYEAESIDWKEFLDYFKRFASPSLFQRTGYILELMNKELNFKIPKEVLEFFRSKVETKTKLVPTSPSRGKFIKEWKLLDNLGKDKILGWAYGY not soluble
MGSDKIHHHHHHMIKIGAHMPISKGFDRVPQDTVNIGGNSFQIFPHNARSWSAKLPSDEAATKFKREMKKHGIDWENAFCHSGYLINLASPKDDIWQKSVELLKKEVEICRKLGIRYLNIHPGSHLGTGEEEGIDRIVRGLNEVLNNTEGVVILLENVSQKGGNIGYKLEQLKKIRDLVDQRDRVAITYDTCHGFDSGYDITKKEGVEALLNEIESLFGLERLKMIHLNDSKYPLGAAKDRHERIGSGFIGEEGFAVFFSFKEIQEVPWILETPGGNEEHAEDIKKVFEIIEKFGIEVD not soluble

Each recorded value in this set is attributed to the DeepSol protein solubility set.
